The values you see were collected from PubChem BioAssay (NCI).

- Test system: HS 578T breast
- measurement-description: NCI-60 one-dose screen, 48 h (100 = growth as untreated, 0 = no growth, -100 = all killed)
- condition-context: 10 µM
The panel holds about 83,000 compounds, 20% with a hit somewhere; the sample as a whole holds those more often.

{"columns": ["compound", "growth [%]"],
 "data": [
  ["C[C@H]1[C@H](OC(=O)CCC(=O)N(CCCc2cn(-c3ccc([N+](=O)[O-])cc3)nn2)CCNc2ccnc3cc(Cl)ccc23)O[C@@H]2OC3(C)CC[C@H]4[C@H](C)CC[C@@H]1[C@@]24OO3", 52.8],
  ["CC(=C\\C(=O)Oc1ccc2c3c1OC1C(O)CCC4(O)C(C2)N(CC2CCC2)CCC314)/C=C1\\CCCc2ccccc21 (centres undefined)", 59.8],
  ["CC(=O)Oc1ccccc1C(=O)[Se]C(=NC(C)C)NC(C)C", -15.6],
  ["COc1cc(OC)c(S(=O)(=O)N(CCCl)CCCl)cc1C(=O)/C=C/c1cc(OC)c(OC)c(OC)c1", 78.3],
  ["COP(=O)(CC(F)(F)C(F)(F)F)OC", 75.3],
  ["COCCOCCOCCOc1ccc(-n2cc(CCCN(CCNc3ccnc4cc(Cl)ccc34)C(=O)CCC(=O)O[C@@H]3O[C@@H]4OC5(C)CC[C@H]6[C@H](C)CC[C@@H]([C@H]3C)[C@@]46OO5)nn2)cc1", 34.9],
  ["CC12OOC(C)(OO1)C2CCC(=O)NCCNc1ccnc2cc(Cl)ccc12 (centres undefined)", 99.8],
  ["O=C(NCCCCC(c1ccc(F)cc1)c1ccc(F)cc1)Nc1ccc([N+](=O)[O-])c(C(F)(F)F)c1", -3.33],
  ["CC[C@]12C=CCN3CC[C@@]4(c5ccc(OC)cc5N(C)[C@H]4[C@@](O)(C(=O)OC)[C@@H]1OC(=O)CCC[P+](c1ccc(F)cc1)(c1ccc(F)cc1)c1ccc(F)cc1)[C@@H]32", 19.1],
  ["COc1cc2cc(C(=O)N3C[C@@H](CCl)c4c3cc(OC(=O)N3CCN(C)[C@@H]5CSSC[C@@H]53)c3ccccc43)[nH]c2c(OC)c1OC", -25.5],
  ["C[C@H]1[C@H](OC(=O)CCC(=O)N(CCCc2cn(-c3ccc(C#N)cc3)nn2)CCNc2ccnc3cc(Cl)ccc23)O[C@@H]2OC3(C)CC[C@H]4[C@H](C)CC[C@@H]1[C@@]24OO3", 43],
  ["CC12CCC3(CCC(=O)NCCCNc4ccnc5cc(Cl)ccc45)[C@@](C)(OO[C@]3(C)O1)O2", 11.4],
  ["COC(=O)C[C@](O)(CCC(C)C)C(=O)O[C@H]1C(OC)=C[C@@]23CCCN2CCc2cc4c(cc2[C@@H]13)OCO4", -25.8],
  ["COC(=O)C[C@](O)(CCC(C)C)C(=O)O[C@@H]1C(OC)=C[C@]23CCCN2CCc2cc4c(cc2[C@H]13)OCO4", -22.2]
]}
